tested on: CCRF-CEM; assay: Tumor cell proliferation inhibition (CellTiter-Meiluncell Luminescent Cell Viability Assay), CCRF-CEM; settings: Homo sapiens, 96 h, read-out: inhibitory activity (IC50, nM) against tumor cells proliferation, CCRF-CEM
Recorded IC50 for the following compounds

compound	target-or-test-system	IC50
O=C1CCC(N2Cc3cc(CN4CCN(c5ccc(Cl)cc5)CC4)ccc3C2=O)C(=O)N1 (centres unmarked) [GT-04455]	CCRF-CEM	1 to 5 nM
Cc1ccsc1C1=CCN(Cc2ccc3c(c2)CN(C2CCC(=O)NC2=O)C3=O)CC1 (centres unmarked) [GT-04495]	CCRF-CEM	< 1 nM
O=C1CCC(N2Cc3cc(CN4CCN(c5ccc(Cl)cn5)CC4)ccc3C2=O)C(=O)N1 (centres unmarked) [GT-04431]	CCRF-CEM	1 to 5 nM
O=C1CCC(N2Cc3cc(CN4CCN(c5cc(Cl)ccc5Cl)CC4)ccc3C2=O)C(=O)N1 (centres unmarked) [GT-04487]	CCRF-CEM	5 to 10 nM

Entry Cc1ccc(Sc2ccccc2N2CCN(Cc3ccc4c(c3)CN(C3CCC(=O)NC3=O)C4=O)CC2)c(C)c1 (centres unmarked) [GT-04203] needs its IC50 filled in; supply it.
5 to 10 nM

Given the compound O=C1CCC(N2Cc3cc(CN4CCN(c5cccc(Cl)c5Cl)CC4)ccc3C2=O)C(=O)N1 (centres unmarked) [GT-04201] , write its reported IC50.
1 to 5 nM

Tell me measured IC50 for O=C1CCC(N2Cc3cc(CN4CCN(c5ccccc5Cl)CC4)ccc3C2=O)C(=O)N1 (centres unmarked) [GT-04454] please.
10 to 50 nM

Determine its reported IC50: Cc1ccc(Cl)cc1N1CCN(Cc2ccc3c(c2)CN(C2CCC(=O)NC2=O)C3=O)CC1 (centres unmarked) [GT-04440]
10 to 50 nM

Consider the compound Cc1cccc(N2CCN(Cc3ccc4c(c3)CN(C3CCC(=O)NC3=O)C4=O)CC2)c1 (centres unmarked) [GT-04462] and give its recorded IC50.
1 to 5 nM

# return recorded IC50 for entry O=C1CCC(N2Cc3cc(CN4CCN(c5cccc(Cl)n5)CC4)ccc3C2=O)C(=O)N1 (centres unmarked) [GT-04497]
1 to 5 nM

Tell me IC50 reported for O=C1CCC(N2Cc3cc(CN4CCN(c5ccccc5Br)CC4)ccc3C2=O)C(=O)N1 (centres unmarked) [GT-04456]
5 to 10 nM

---

system: Human acute T lymphocytic leukemia cells (Molt-4); assay: Tumor cell proliferation inhibition (CellTiter-Meiluncell Luminescent Cell Viability Assay), Molt-4; conditions: MOLT-4, read-out: inhibitory activity (IC50, nM) against tumor cells proliferation, Molt-4
Parameter IC50: see the listing below.

Some molecules with recorded IC50:
molecule	target-or-test-system	recorded-measurement
O=C1CCC(N2C(=O)c3ccc(CN4CC=C(c5ncnc6sc(-c7ccccc7)cc56)CC4)cc3C2=O)C(=O)N1 (stereo not shown) [GT-06675]	Human acute T lymphocytic leukemia cells (Molt-4)	10 to 50 nM
O=C1CCC(N2C(=O)c3ccc(CN4CC=C(c5ccnc(Cl)c5Cl)CC4)cc3C2=O)C(=O)N1 (stereo not shown) [GT-06616]	Human acute T lymphocytic leukemia cells (Molt-4)	500 to 1000 nM
O=C1CCC(N2C(=O)c3ccc(CN4CCN(c5n[nH]c6cc(F)ccc56)CC4)cc3C2=O)C(=O)N1 (stereo not shown) [GT-06632]	Human acute T lymphocytic leukemia cells (Molt-4)	100 to 500 nM
Cn1cc(C2CCN(Cc3ccc4c(c3)C(=O)N(C3CCC(=O)NC3=O)C4=O)CC2)c2ccc(F)cc21 (stereo not shown) [GT-06635]	Human acute T lymphocytic leukemia cells (Molt-4)	50 to 100 nM
O=C1CCC(N2C(=O)c3ccc(CN4C5CCC4CN(c4cccc(Cl)c4Cl)C5)cc3C2=O)C(=O)N1 (stereo not shown) [GT-06694]	Human acute T lymphocytic leukemia cells (Molt-4)	500 to 1000 nM
O=C1CCC(N2C(=O)c3ccc(CN4CC=C(c5cncc(Cl)c5Cl)CC4)cc3C2=O)C(=O)N1 (stereo not shown) [GT-06609]	Human acute T lymphocytic leukemia cells (Molt-4)	100 to 500 nM

Dear colleague, please send me the reported IC50 for O=C1CCC(N2C(=O)c3ccc(CN4CC=C(c5ncnc6sc7c(c56)CCCC7)CC4)cc3C2=O)C(=O)N1 (stereo not shown) [GT-06680] when you can.
100 to 500 nM
